target: CDK4 (Homo sapiens); assay: CDK4 protein degradation activity by Western blot in MCF-7 cells; format: cell-based; design: host or cells: MCF-7; details: MCF7, compound 1 μM, 24 hours
Sequence (P11802 whole entry): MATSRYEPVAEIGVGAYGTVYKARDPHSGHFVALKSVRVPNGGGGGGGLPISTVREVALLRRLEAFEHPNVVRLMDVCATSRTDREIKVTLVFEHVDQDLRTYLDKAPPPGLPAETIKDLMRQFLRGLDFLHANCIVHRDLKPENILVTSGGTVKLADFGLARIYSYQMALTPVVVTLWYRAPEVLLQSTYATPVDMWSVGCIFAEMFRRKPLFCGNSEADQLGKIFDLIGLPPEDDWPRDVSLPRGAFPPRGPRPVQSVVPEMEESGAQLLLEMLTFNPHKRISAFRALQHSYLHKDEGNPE
READOUT KIND: Dmax at 1 µM

Here is how some compounds turned out for Dmax at 1 µM.
> print(dat)
                                   compound     target.or.system  value.observed
1  CN(C)C(=O)c1cc2cnc(Nc3ccc(N4CCN(CCCNC(=O)COc5cccc6c5C(=O)N(C5CCC(=O)NC5=O)C6=O)CC4)cn3)nc2n1C1CCCC1 (centres unmarked)  CDK4 (Homo sapiens)           > 90%
2  CC(=O)c1c(C)c2cnc(Nc3ccc(N4CCN(CCCCCCCCOc5cccc6c5C(=O)N(C5CCC(=O)NC5=O)C6=O)CC4)cn3)nc2n(C2CCCC2)c1=O (centres unmarked)  CDK4 (Homo sapiens)       50 to 90%
3  CN(C)C(=O)c1cc2cnc(Nc3ccc(N4CCN(CCOCCOCCOCCNc5cccc6c5C(=O)N(C5CCC(=O)NC5=O)C6=O)CC4)cn3)nc2n1C1CCCC1 (centres unmarked)  CDK4 (Homo sapiens)           > 90%
4  CC(=O)c1c(C)c2cnc(Nc3ccc(N4CCN(CCCCCCNc5cccc6c5C(=O)N(C5CCC(=O)NC5=O)C6=O)CC4)cn3)nc2n(C2CCCC2)c1=O (centres unmarked)  CDK4 (Homo sapiens)       50 to 90%
5  CN(C)C(=O)c1cc2cnc(Nc3ccc(N4CCN(CCCCCNC(=O)COc5cccc6c5C(=O)N(C5CCC(=O)NC5=O)C6=O)CC4)cn3)nc2n1C1CCCC1 (centres unmarked)  CDK4 (Homo sapiens)           > 90%
6  CC(=O)c1c(C)c2cnc(Nc3ccc(N4CCN(CCOCCCNc5cccc6c5C(=O)N(C5CCC(=O)NC5=O)C6=O)CC4)cn3)nc2n(C2CCCC2)c1=O (centres unmarked)  CDK4 (Homo sapiens)       50 to 90%
7  CN(C)C(=O)c1cc2cnc(Nc3ccc(N4CCN(CCOCCOCCOc5cccc6c5C(=O)N(C5CCC(=O)NC5=O)C6=O)CC4)cn3)nc2n1C1CCCC1 (centres unmarked)  CDK4 (Homo sapiens)           > 90%
8  CN(C)C(=O)c1cc2cnc(Nc3ccc(N4CCN(CCCCCC(=O)Nc5cccc6c5C(=O)N(C5CCC(=O)NC5=O)C6=O)CC4)cn3)nc2n1C1CCCC1 (centres unmarked)  CDK4 (Homo sapiens)           > 90%

// for each compound in input: emit Dmax at 1 µM
1. CN(C)C(=O)c1cc2cnc(Nc3ccc(N4CCN(CCOCCNC(=O)COc5cccc6c5C(=O)N(C5CCC(=O)NC5=O)C6=O)CC4)cn3)nc2n1C1CCCC1 (centres unmarked)
2. CC(=O)c1c(C)c2cnc(Nc3ccc(N4CCN(CCCOCCNc5cccc6c5C(=O)N(C5CCC(=O)NC5=O)C6=O)CC4)cn3)nc2n(C2CCCC2)c1=O (centres unmarked)
3. CC(=O)c1c(C)c2cnc(Nc3ccc(N4CCN(CCCCOc5cccc6c5C(=O)N(C5CCC(=O)NC5=O)C6=O)CC4)cn3)nc2n(C2CCCC2)c1=O (centres unmarked)

1: > 90%; 2: 50 to 90%; 3: > 90%
